The origin of these recorded values is ChEMBL document CHEMBL5113455.

Tested on: CYP3A4
Assay: in vitro
Conditions: rat, rat liver microsomes, probe midazolam
Description: Inhibition of rat CYP3A4 in rat liver microsomes assessed as inhibition of midazolam metabolism using midazolam as substrate at 10 uM incubated for 10 mins relative to control
readout label: inhibition at 10 min, 10 µM (%)

I = CCOC(=O)c1ccc(CCc2ccc(-n3ccnc3)cc2)cc1
II = CCOC(=O)COc1ccc(-n2ccnc2)cc1
III = CCCCOC(=O)c1ccc(COc2ccc(-n3ccnc3)cc2)cc1
Inquiry: Sort the items above on inhibition at 10 min, 10 µM, descending. Output spec: a listing of the labels in the requested order.
Reply text: I, III, II
(I: 74%, III: 39.9%, II: 12.7%)

* * *

Tested on: CYP3A4
Experiment: in vitro
Conditions: rat, rat liver microsomes, probe midazolam
readout label: inhibition at 10 min, 10 µM (%)

Study these solved cases before continuing.
[
  {
    "chem smiles": "CC(=O)OCc1ccc(COc2ccc(-n3ccnc3)cc2)cc1",
    "inhibition at 10 min, 10 µM, %": 87.1
  },
  {
    "chem smiles": "CCCCCCOC(=O)c1ccc(COc2ccc(-n3ccnc3)cc2)cc1",
    "inhibition at 10 min, 10 µM, %": 72.2
  },
  {
    "chem smiles": "O=C(O)c1ccc(CCc2ccc(-n3ccnc3)cc2)cc1",
    "inhibition at 10 min, 10 µM, %": 15.5
  },
  {
    "chem smiles": "COC(=O)c1ccc(COc2ccc(-n3ccnc3)cc2)cc1",
    "inhibition at 10 min, 10 µM, %": 72
  },
  {
    "chem smiles": "c1ccc(COc2ccc(-n3ccnc3)cc2)cc1",
    "inhibition at 10 min, 10 µM, %": 82.5
  },
  {
    "chem smiles": "Nn1nnc2ccccc21",
    "inhibition at 10 min, 10 µM, %": 80.8
  }
]

I = O=C(OCCc1ccccc1)c1ccc(COc2ccc(-n3ccnc3)cc2)cc1
II = O=C(Oc1ccc(-n2ccnc2)cc1)c1ccc(C(F)(F)F)cc1
III = CCCOC(=O)c1ccc(CCc2ccc(-n3ccnc3)cc2)cc1
Inquiry: Rank ascending by inhibition at 10 min, 10 µM. Output spec: a listing of the labels in the requested order.
Reply text: II, I, III
(II: 15.6%, I: 61.8%, III: 90.4%)
